# Method: Inhibition of PKB at 1 uM; values are per cent of control
Measured Attribute: residual activity (%)

O=C1Nc2ccccc2/C1=C(/Nc1ccc(CN2CCCCC2)cc1)c1ccccc1 | 88
CCNC(=O)c1ccc2c(c1)NC(=O)/C2=C(\Nc1ccc(N(CCN(C)C)S(C)(=O)=O)cc1)c1ccccc1 | 90
CN(C)C(=O)c1ccc2c(c1)/C(=C(/Nc1ccc(CN3CCCCC3)cc1)c1ccccc1)C(=O)N2 | 93
CCNC(=O)c1ccc2c(c1)NC(=O)/C2=C(\Nc1ccc(CN(C)C)cc1)c1ccccc1 | 106
CCN(C)C(=O)c1ccc2c(c1)NC(=O)/C2=C(\Nc1ccc(CN2CCCCC2)cc1)c1ccccc1 | 97
CCNCc1ccc(N/C(=C2\C(=O)Nc3cc(C(=O)N(C)CC)ccc32)c2ccccc2)cc1 | 92

---

# Method: Inhibition of CK1 at 1 uM; values are per cent of control
Measured Attribute: residual activity (%)

CCNC(=O)c1ccc2c(c1)NC(=O)/C2=C(\Nc1ccc(CN(C)C)cc1)c1ccccc1 | 102
CCNC(=O)c1ccc2c(c1)NC(=O)/C2=C(\Nc1ccc(N(CCN(C)C)S(C)(=O)=O)cc1)c1ccccc1 | 100
CCNCc1ccc(N/C(=C2\C(=O)Nc3cc(C(=O)N(C)CC)ccc32)c2ccccc2)cc1 | 90
CN(C)C(=O)c1ccc2c(c1)/C(=C(/Nc1ccc(CN3CCCCC3)cc1)c1ccccc1)C(=O)N2 | 95

[P] O=C1Nc2ccccc2/C1=C(/Nc1ccc(CN2CCCCC2)cc1)c1ccccc1
[Q] CCN(C)C(=O)c1ccc2c(c1)NC(=O)/C2=C(\Nc1ccc(CN2CCCCC2)cc1)c1ccccc1
Input line: Form: Entry with minimum residual activity (choose one): P / Q Mark your answer with the label of the selected entry.
Output line: P

---

# Measured Target: Mitogen-activated protein kinase 8 (Homo sapiens)
# Method: Inhibition of SAPK1c at 2 uM
Measured Attribute: residual activity (%)

For orientation, consider the following solved cases.
CCNC(=O)c1ccc2c(c1)NC(=O)/C2=C(\Nc1ccc(CN(C)C)cc1)c1ccccc1 | 99
CCN(C)C(=O)c1ccc2c(c1)NC(=O)/C2=C(\Nc1ccc(CN2CCCCC2)cc1)c1ccccc1 | 89
CCNC(=O)c1ccc2c(c1)NC(=O)/C2=C(\Nc1ccc(N(CCN(C)C)S(C)(=O)=O)cc1)c1ccccc1 | 105
CCNCc1ccc(N/C(=C2\C(=O)Nc3cc(C(=O)N(C)CC)ccc32)c2ccccc2)cc1 | 91

[a] CN(C)C(=O)c1ccc2c(c1)/C(=C(/Nc1ccc(CN3CCCCC3)cc1)c1ccccc1)C(=O)N2
[b] O=C1Nc2ccccc2/C1=C(/Nc1ccc(CN2CCCCC2)cc1)c1ccccc1
Input line: API: POST /compare with a and b ; response names the item with higher residual activity. Returns: label corresponding to the selected item.
Output line: a

---

# Measured Target: UniProt:P36897
# Sequence (P36897 whole entry): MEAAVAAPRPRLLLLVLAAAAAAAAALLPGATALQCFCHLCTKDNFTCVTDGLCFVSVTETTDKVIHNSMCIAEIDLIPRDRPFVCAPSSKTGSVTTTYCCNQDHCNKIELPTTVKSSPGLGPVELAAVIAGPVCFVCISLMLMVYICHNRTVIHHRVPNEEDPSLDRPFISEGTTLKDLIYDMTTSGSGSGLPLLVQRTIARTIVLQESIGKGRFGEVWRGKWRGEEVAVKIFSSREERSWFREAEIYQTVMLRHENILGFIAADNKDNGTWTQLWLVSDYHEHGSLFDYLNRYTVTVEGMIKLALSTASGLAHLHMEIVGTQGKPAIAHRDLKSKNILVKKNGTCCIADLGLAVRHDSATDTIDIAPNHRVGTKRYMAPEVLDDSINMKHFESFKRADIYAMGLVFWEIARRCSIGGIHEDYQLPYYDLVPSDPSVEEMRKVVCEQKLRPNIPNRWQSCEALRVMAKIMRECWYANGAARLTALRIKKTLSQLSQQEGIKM
# Method: Inhibition of TGFbeta receptor in human HaCaT cells assessed as Smad phosphorylation by ELISA
Measured Attribute: EC50 (nM)

Take a look at these entries with their results.
CC(C)NC(=O)c1ccc2c(c1)NC(=O)/C2=C(\Nc1ccc(CN2CCCCC2)cc1)c1ccccc1 | 708
CCNCc1ccc(N/C(=C2\C(=O)Nc3cc(C(=O)N(C)CC)ccc32)c2ccccc2)cc1 | 160

[1] CCNC(=O)c1ccc2c(c1)NC(=O)/C2=C\Nc1ccc(N(CCCN(C)C)C(C)=O)cc1
[2] CCNC(=O)c1ccc2c(c1)NC(=O)/C2=C(\Nc1ccc(N(C)C(=O)CN2CCN(C)CC2)cc1)c1ccccc1
Input line: Which item exceeds the other in EC50, 1 or 2 ? Field: selected label. Fill in the label of the entry you choose.
Output line: 2

[1] CCNC(=O)c1ccc2c(c1)NC(=O)/C2=C(\Nc1ccc(C(=O)NCCN(CC)CC)cc1)c1ccccc1
[2] CCNC(=O)c1ccc2c(c1)NC(=O)/C2=C(\Nc1ccc(CCN(C)C)cc1)c1ccccc1
Input line: Between 1 and 2 , which one has the lower reported EC50 value? API: response body contains the label of the selected item.
Output line: 2

---

# Measured Target: Dual specificity mitogen-activated protein kinase kinase 1 (Homo sapiens) (UniProt Q02750)
# Sequence (Q02750 whole entry): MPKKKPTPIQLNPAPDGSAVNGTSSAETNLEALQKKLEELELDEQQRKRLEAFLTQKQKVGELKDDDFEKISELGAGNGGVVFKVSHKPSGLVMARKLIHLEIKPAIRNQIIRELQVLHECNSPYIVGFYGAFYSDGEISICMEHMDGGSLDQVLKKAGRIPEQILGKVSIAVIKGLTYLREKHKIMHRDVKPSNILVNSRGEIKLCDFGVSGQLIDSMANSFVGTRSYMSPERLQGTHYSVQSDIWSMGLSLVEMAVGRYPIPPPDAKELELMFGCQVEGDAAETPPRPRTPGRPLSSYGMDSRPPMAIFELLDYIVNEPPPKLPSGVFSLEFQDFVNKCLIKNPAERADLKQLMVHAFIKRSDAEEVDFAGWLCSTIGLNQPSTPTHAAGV
# Method: Inhibition of MKK1A at 1 uM; values are per cent of control
Measured Attribute: residual activity (%)

O=C1Nc2ccccc2/C1=C(/Nc1ccc(CN2CCCCC2)cc1)c1ccccc1 | 0
CN(C)C(=O)c1ccc2c(c1)/C(=C(/Nc1ccc(CN3CCCCC3)cc1)c1ccccc1)C(=O)N2 | 4

[A] CCNC(=O)c1ccc2c(c1)NC(=O)/C2=C(\Nc1ccc(CN(C)C)cc1)c1ccccc1
[B] CCNCc1ccc(N/C(=C2\C(=O)Nc3cc(C(=O)N(C)CC)ccc32)c2ccccc2)cc1
Input line: Which of the two items, A and B , has the greater recorded residual activity? # reply format: chosen label
Output line: A
(A: 93%, B: 50%)

---

# Measured Target: UniProt:P41240
# Sequence (P41240 2-450 limits assumed): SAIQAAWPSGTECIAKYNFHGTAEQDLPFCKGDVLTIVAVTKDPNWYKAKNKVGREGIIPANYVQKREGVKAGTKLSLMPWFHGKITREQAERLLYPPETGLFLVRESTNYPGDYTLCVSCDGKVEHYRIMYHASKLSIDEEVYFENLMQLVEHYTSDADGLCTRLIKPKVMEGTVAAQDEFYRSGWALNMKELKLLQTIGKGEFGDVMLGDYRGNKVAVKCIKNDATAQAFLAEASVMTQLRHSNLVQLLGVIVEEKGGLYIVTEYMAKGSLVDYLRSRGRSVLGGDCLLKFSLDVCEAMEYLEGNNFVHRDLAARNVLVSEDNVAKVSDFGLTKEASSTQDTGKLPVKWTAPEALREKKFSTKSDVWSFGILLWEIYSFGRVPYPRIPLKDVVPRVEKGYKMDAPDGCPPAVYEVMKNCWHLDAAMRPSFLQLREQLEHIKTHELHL
# Method: Inhibition of CSK at 1 uM; values are per cent of control
Measured Attribute: residual activity (%)

CCNC(=O)c1ccc2c(c1)NC(=O)/C2=C(\Nc1ccc(CN(C)C)cc1)c1ccccc1 | 96
CCN(C)C(=O)c1ccc2c(c1)NC(=O)/C2=C(\Nc1ccc(CN2CCCCC2)cc1)c1ccccc1 | 72
CCNC(=O)c1ccc2c(c1)NC(=O)/C2=C(\Nc1ccc(N(CCN(C)C)S(C)(=O)=O)cc1)c1ccccc1 | 83

---

# Measured Target: TGF-beta receptor type-1 (Homo sapiens, UniProt P36897)
# Sequence (P36897 whole entry): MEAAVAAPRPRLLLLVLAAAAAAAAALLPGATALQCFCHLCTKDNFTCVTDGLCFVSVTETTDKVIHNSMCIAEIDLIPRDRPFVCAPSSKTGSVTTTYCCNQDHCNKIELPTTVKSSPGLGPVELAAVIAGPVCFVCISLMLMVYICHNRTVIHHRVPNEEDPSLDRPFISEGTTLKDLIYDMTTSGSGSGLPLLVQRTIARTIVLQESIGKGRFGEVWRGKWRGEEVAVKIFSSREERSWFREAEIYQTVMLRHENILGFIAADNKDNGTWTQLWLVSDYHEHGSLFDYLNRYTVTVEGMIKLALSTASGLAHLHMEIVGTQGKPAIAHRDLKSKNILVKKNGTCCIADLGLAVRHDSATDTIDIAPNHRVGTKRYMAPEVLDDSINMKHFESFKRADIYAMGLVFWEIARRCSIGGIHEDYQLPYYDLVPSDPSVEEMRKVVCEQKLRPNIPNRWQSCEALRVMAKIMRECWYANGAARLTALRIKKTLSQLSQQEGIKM
Measured Attribute: pIC50
The read-out pIC50 is expressed as -log10 of concentration in moles per litre.

CCN(CC)Cc1cccc(N/C(=C2\C(=O)Nc3cc(C(=O)N(C)CC)ccc32)c2ccccc2)c1 | 6.21

Input line: Item `CCN(CC)C(=O)c1ccc2c(c1)NC(=O)/C2=C(\Nc1ccc(CN2CCCCC2)cc1)c1ccccc1` with TGF-beta receptor type-1 (Homo sapiens, UniProt P36897) - pIC50?
Output line: 6.20

---

# Measured Target: Serine/threonine-protein kinase Nek2 (Homo sapiens)
# Sequence (whole entry): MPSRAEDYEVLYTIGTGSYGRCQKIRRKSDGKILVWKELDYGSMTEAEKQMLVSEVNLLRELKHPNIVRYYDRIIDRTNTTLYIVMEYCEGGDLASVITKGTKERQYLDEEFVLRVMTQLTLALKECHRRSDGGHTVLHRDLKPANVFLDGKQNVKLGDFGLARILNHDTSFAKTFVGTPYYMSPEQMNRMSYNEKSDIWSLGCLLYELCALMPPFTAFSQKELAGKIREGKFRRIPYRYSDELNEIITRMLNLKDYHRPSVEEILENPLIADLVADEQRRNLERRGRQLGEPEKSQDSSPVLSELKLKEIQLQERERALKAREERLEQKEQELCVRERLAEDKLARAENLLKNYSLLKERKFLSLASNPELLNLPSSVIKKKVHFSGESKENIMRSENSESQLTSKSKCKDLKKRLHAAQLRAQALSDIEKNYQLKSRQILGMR
# Method: Inhibition of NEK2A at 1 uM; values are per cent of control
Measured Attribute: residual activity (%)

CN(C)C(=O)c1ccc2c(c1)/C(=C(/Nc1ccc(CN3CCCCC3)cc1)c1ccccc1)C(=O)N2 | 81
CCNC(=O)c1ccc2c(c1)NC(=O)/C2=C(\Nc1ccc(CN(C)C)cc1)c1ccccc1 | 98
CCNC(=O)c1ccc2c(c1)NC(=O)/C2=C(\Nc1ccc(N(CCN(C)C)S(C)(=O)=O)cc1)c1ccccc1 | 70
CCN(C)C(=O)c1ccc2c(c1)NC(=O)/C2=C(\Nc1ccc(CN2CCCCC2)cc1)c1ccccc1 | 96
